- System: HOP-62 NSCLC
- experimental.protocol: NCI-60 one-dose screen, 48 h (100 = growth as untreated, 0 = no growth, -100 = all killed)
- experimental.setup: 10 µM unless noted
This is part of a sample that, as a whole, favours compounds with a hit. Of some 83,000 tested, about 20% had one in any assay. Activity calls are given as the source filed them. How the source made its calls: active means growth percent below 10; inactive means the rest.
Property: growth; scope: individual compounds

# chemical.structure, growth
rows = [
    ("Cc1ccc2c(-c3cc(-c4ccccc4)nc(N)c3C#N)cc(=O)oc2c1", "88.3% (inactive)"),
    ("COc1ccc(-c2c(C(=O)NS(C)(=O)=O)n(Cc3cccc(C(F)(F)F)c3)c3ccccc23)cc1", "89.4% (inactive)"),
    ("COc1ccc(C(=S)N2CCN(c3cccc(C)c3)CC2)cc1OC", "90.6% (inactive)"),
    ("C=C1C(=O)O[C@H]2[C@H]1CC/C(COC(=O)CCC(=O)NCCOCCOCC(=O)Nc1ccc(OC)c(C(N)=O)c1O)=C\\CC[C@@]1(C)O[C@@H]21", "90.3% (inactive)"),
]

----------
- System: UACC-257 melanoma
- experimental.protocol: NCI-60 one-dose screen, 48 h (100 = growth as untreated, 0 = no growth, -100 = all killed)
- experimental.setup: 10 µM unless noted
Compounds without any hit were thinned out: in the full panel of roughly 83,000, 20% have a hit.
Property: growth; scope: individual compounds
reported.metric: growth (%)

# chemical.structure, unit.of.measure, result
records = [
    ("c1ccc(Cc2nn3cc(-c4ccccc4)nc3s2)cc1", "%", 108),
    ("CCCCCCN(CCCCCC)c1ccc(/C=C2/SC(=O)NC2=O)c(C)c1", "%", 103),
    ("O=C(/C=C/c1cccc2ccccc12)c1ccc(NC(=O)c2ccccc2CN2C(=O)c3ccccc3C2=O)cc1", "%", 88),
]

----------
- System: UACC-257 melanoma
- experimental.protocol: NCI-60 one-dose screen, 48 h (100 = growth as untreated, 0 = no growth, -100 = all killed)
- experimental.setup: 10 µM unless noted
About 83,000 compounds went through this panel and 20% of them were active in at least one assay; those are over-represented in the sample as a whole. Active and inactive are the calls of the source. The calls were made as follows: active = growth percent below 10; inactive = the rest.

# compound, growth
measured = [
    ("COc1ccc(-c2nc(NN)c3c(C)nn(-c4ccc(F)cc4)c3n2)cc1", "45.3% (inactive)"),
    ("CC(C)c1cc(C(C)C)c(S(=O)(=O)Oc2ccc(NC(=O)c3ccc(Cl)cc3)cc2)c(C(C)C)c1", "24.7% (inactive)"),
    ("c1cc2nc(-c3cn[nH]c3)c3c(c2cc1-c1cn[nH]c1)C1CCC3C1 (centres undefined)", "83.9% (inactive)"),
    ("NCCCNc1nc2ccccc2c2c(=O)c3cc(F)cc(Cl)c3sc12", "114% (inactive)"),
]

----------
- Test system: A498 renal
- experimental.protocol: NCI-60 one-dose screen, 48 h
- experimental.setup: 10 µM unless noted
- Method: Growth inhibition of the A498 human tumor cell line is measured as a screen for anti-cancer activity. Cells are grown in 96 well plates and exposed to the test compound for 48 hours. Compounds are tested at a single concentration, which is 10^-5 M for most compounds. The reported endpoint is percent growth (GI% or GIPRCNT), where numbers from 0 - 100% represent growth inhibition, and numbers from -100% - 0 represent cell death. For example, a value of 40 represents 60% growth inhibition. […]
About 83,000 compounds went through this panel and 20% of them were active in at least one assay; those are over-represented in the sample as a whole. Calls of active or inactive are those of the source. Rule for the calls: active = growth percent below 10; inactive = the rest.
Outcomes: yes (active), no (inactive)

# molecule, class.assignment
data = [
    ("COc1ccc(-c2csc(NC(=O)N3CCN(c4cc5c(cc4F)c(=O)c(C(=O)O)cn5C4CC4)CC3)n2)cc1", "yes"),
    ("CCOC(=O)c1sc2ncc(-c3ccc(OC)cc3)n2c1C", "no"),
    ("CCCCCCCCCCCCCCCCCCOc1ccc(CC(=O)OCC[N+]2(C)CCCCC2)cc1", "no"),
    ("Cc1ccc(C(=O)NN2C(=O)CSC2c2ccc(Cl)cc2)cn1 (centres undefined)", "no"),
    ("CCOC(=O)Nc1ccc(-c2nc(-c3cccc(OCCN4CCOCC4)c3)c(-c3ccnc(Br)c3)[nH]2)cc1", "no"),
    ("COc1ccc(-c2cc(-c3cc(OC)c(OC)c(OC)c3)nc(N3CCOCC3)c2C#N)cc1", "no"),
    ("COc1cc2cc(Oc3ccc(NC(=O)Nc4ccc(Cl)c(Cl)c4)cc3)c(C)nc2cc1OCCN1CCOCC1", "no"),
    ("COc1cccc(-c2nc(-c3ccc(NC(=O)c4ccccc4)cc3)[nH]c2-c2ccnc(Br)c2)c1", "yes"),
    ("CN(C)CCNc1nc2ccccc2c2c(=O)c3cc(F)ccc3sc12", "no"),
]

----------
- System: NCI/ADR-RES ovarian
- experimental.protocol: NCI-60 one-dose screen, 48 h (100 = growth as untreated, 0 = no growth, -100 = all killed)
- experimental.setup: 10 µM unless noted
This is part of a sample that, as a whole, favours compounds with a hit. Of some 83,000 tested, about 20% had one in any assay.
Hi! Just check whether growth is below 80%. Below gives Fulfilled, equal or above gives Not fulfilled.

# molecule, class.assignment
data = [
    ("O=C(/C=C/c1sc(Cl)nc1Cl)c1ccccc1", "Not fulfilled"),
    ("COc1ccc(C2=Nn3c(nnc3-c3cc(Cl)cc(Cl)c3Cl)SC2)cc1", "Fulfilled"),
    ("COc1cccc2nc3n(c12)C(c1c(F)cccc1F)SC3 (stereo not drawn)", "Not fulfilled"),
    ("COc1ccc(-c2nc(NN)c3c(C)nn(-c4ccc(F)cc4)c3n2)cc1", "Fulfilled"),
    ("COc1cccc(-c2nc(-c3ccc(NC(=O)C(C)C)cc3)[nH]c2-c2ccnc(Br)c2)c1", "Fulfilled"),
    ("CCOC(=O)c1cn2ncnc(Oc3ccc(NC(=O)NCCN(CC)CC)c(Cl)c3)c2c1C", "Fulfilled"),
]

----------
- Tested on: NCI-H460 lung
- experimental.protocol: NCI-60 one-dose screen, 48 h
- experimental.setup: 10 µM unless noted
About 83,000 compounds went through this panel and 20% of them were active in at least one assay; those are over-represented in the sample as a whole. The source made the active and inactive calls. Rule for the calls: active = growth percent below 10; inactive = the rest.
Outcomes: active, inactive

# compound, class.assignment
measured = [
    ("CN(C)c1ccc(/C=N\\Nc2cc(=O)[nH]c3ccc(Cl)cc23)cc1", "inactive"),
    ("CC/C=C\\C[C@@H]1C/C=C2/C(=O)C=C[C@H]2C/C=C\\CCCC(=O)O1", "active"),
    ("COC(=O)[C@H](C)NC(=O)NC(=O)NC(=O)CI", "inactive"),
    ("NCCOc1ncccc1/C=C1\\c2ccccc2-c2ccc(C(F)F)cc21", "active"),
    ("COc1cc(/C=N/NC(=O)c2ccc(C)nc2)cc(OC)c1OC", "inactive"),
    ("Cc1cc(O)c(C2=NN(c3ccc(S(N)(=O)=O)cc3)C(/C=C/c3ccccc3)C2)cc1Cl (stereo unspecified)", "inactive"),
    ("CN(C)CC#Cc1ccc2ncc(C#N)c(Nc3ccc(F)c(Cl)c3)c2c1", "inactive"),
    ("CC(=O)O.CN1[CH-]N(Cc2ccc(C#N)cc2)c2ccccc21.[Ag+]", "inactive"),
    ("CC(=O)CC(c1cccs1)c1c(-c2ccccc2)[nH]c2ccccc12 (stereo unspecified)", "inactive"),
    ("CC(=O)OC[C@H]1OC(Sc2sc(C(=O)c3ccc(C)cc3)c(N)c2-c2nc3ccccc3s2)[C@H](OC(C)=O)[C@@H](OC(C)=O)[C@@H]1OC(C)=O (stereo partly specified)", "inactive"),
    ("COc1ccc2[nH]c(-c3ccccc3)c(/C=C(\\C#N)S(=O)(=O)c3ccccc3)c2c1", "inactive"),
    ("CCOC(=O)c1c(C)oc2ncnc(N3CCN(C(=O)COc4ccc(C(C)(C)C)cc4)CC3)c12", "inactive"),
    ("CCCCOc1nc2ccc(OC)cc2cc1-c1cc(-c2ccc(Cl)cc2)nc(-c2ccc(Cl)cc2)c1", "inactive"),
    ("CCOC(=O)c1[nH]c(C)c(C(=O)OCc2ccccc2C#N)c1C", "inactive"),
    ("COc1ccn2c(C(C)=O)cc(C(=O)c3ccc4c(c3)Sc3ccccc3N4)c2c1", "active"),
    ("CC1=C(SCCC(=O)OC(C[Se]C2=C(C)C(=O)c3ccccc3C2=O)C(=O)NC(C)(C)C)C(=O)c2ccccc2C1=O (stereo unspecified)", "active"),
    ("CCc1nnc(NC(=O)c2nnn(-c3ccccc3)c2-c2ccco2)s1", "inactive"),
    ("CCOC(=O)c1cnn2c3ccccc3n(S(=O)(=O)c3ccc(OC)cc3)c12", "inactive"),
    ("O=C(Nn1c(NCC(=O)N2c3ccccc3Sc3ccccc32)nnc1-c1ccc(O)cc1)c1ccccc1", "inactive"),
    ("Cc1cccc(NC2=C(Cl)C(=O)c3nc(C)ccc3C2=O)c1", "active"),
    ("CCc1cccc2c3c(sc12)C(c1ccc(Cl)cc1)C(C#N)=C(N)O3 (stereo unspecified)", "inactive"),
    ("Cc1ccccc1C(=O)NN", "inactive"),
    ("COc1ccc(NC2=C(Br)C(=O)C(C)=C(C)C2=O)cc1", "inactive"),
    ("CCCCCCCNC(=O)CCCNc1ncnc2c1ncn2-c1cccc(C(C)O)c1 (stereo unspecified)", "inactive"),
    ("Cc1nc2ccccc2c(/C=C/c2ccc(Cl)cc2)c1C(=O)/C=C/c1ccc(C(F)(F)F)cc1", "active"),
    ("CNC(=O)c1[nH]cc(-c2ccccc2)c1-c1cc(OC)c2c(c1OC)OCO2", "inactive"),
    ("CC(C)c1cc(C(C)C)c(S(=O)(=O)Oc2ccc(NC(=O)c3ccc(Cl)cc3)cc2)c(C(C)C)c1", "inactive"),
    ("COc1ccc(-c2cc(-c3ccc(Cl)cc3)c(C#N)c(=O)n2CCCCCC(=O)Nc2ccccc2N)cc1", "inactive"),
    ("C=C(C)[C@@H]1CC[C@]2(N=C=O)CC[C@]3(C)[C@H](CC[C@@H]4[C@@]5(C)Cc6c([nH]c7ccccc67)C(C)(C)[C@@H]5CC[C@]43C)[C@@H]12", "inactive"),
    ("CCOC(=O)Cn1c(C)c(/C=N/NC(=O)c2cc3c(ccc4ccccc43)o2)c2ccccc21", "active"),
    ("Cc1ccc(NC2=C(Cl)C(=O)c3nc(C)ccc3C2=O)cc1", "active"),
]
